Assay: Moisture content of bupropion salts by KF
Assay type: physicochemical
Details: original API salts
attribute.measured: KF (moisture content), Original (Initial APIs) (%)
// units = %; emit number, no label

Take a look at these entries with their results.
Problem: Suppose we examine the compound CC(NC(C)(C)C)C(=O)c1cccc(Cl)c1.CC(NC(C)(C)C)C(=O)c1cccc(Cl)c1.O=C(O)C(O)C(O)C(=O)O (stereo not shown) [Bupropion tartrate neutral] ; what KF (moisture content), Original (Initial APIs) value has been reported?
Result: 0.14

Problem: Suppose we examine the compound CC(NC(C)(C)C)C(=O)c1cccc(Cl)c1.Cl (racemic) [Bupropion HCl, reference compound] ; what KF (moisture content), Original (Initial APIs) value has been reported?
Result: 0.0

Problem: Suppose we examine the compound CC(NC(C)(C)C)C(=O)c1cccc(Cl)c1.O=C(O)C(O)C(O)C(=O)O (stereo not shown) [Bupropion tartrate acid] ; what KF (moisture content), Original (Initial APIs) value has been reported?
Result: 0.18

Continue with the next compound.
Problem: Suppose we examine the compound Br.CC(NC(C)(C)C)C(=O)c1cccc(Cl)c1 (stereo not shown) [Bupropion HBr, bupropion hydrobromide] ; what KF (moisture content), Original (Initial APIs) value has been reported?
Result: 0.00
